These entries and their values trace back to ChEMBL document CHEMBL1136979.

Test system: T47D
Test protocol: Induction of apoptosis in human T47D cells assessed as caspase activation after 48 hrs by HTS assay
Type: functional, cell-based
Experimental endpoint: EC50 (nM)

Mol	Tested target	Experimental endpoint	Unit abbrev	Op	Recorded measurement
c1ccc(-c2cc3ncnc(Nc4ccc5c(c4)OCO5)c3s2)cc1	T47D	EC50	nM	>	10000
c1ccc(-c2cc3ncnc(NCc4ccc5c(c4)OCO5)c3s2)cc1	T47D	EC50	nM	=	1000
COc1ccc(N(C)c2ncnc3cc(I)sc23)cc1	T47D	EC50	nM	>	10000
COc1ccc(N(C)c2ncnc3scc(C)c23)cc1	T47D	EC50	nM	=	15
COc1ccc(N(C)c2ncnc3ccsc23)cc1OC	T47D	EC50	nM	=	1700
COc1cc2c(c(OC)c1OC)-c1ccc(OC)c(=O)cc1[C@@H](NC(C)=O)CC2	T47D	EC50	nM	=	9
COc1ccc(N(C)c2ncnc3cc(-c4cccnc4)sc23)cc1	T47D	EC50	nM	>	10000
c1nc(NCc2ccc3c(c2)OCO3)c2sccc2n1	T47D	EC50	nM	>	10000
COc1ccc(N(C)c2nc(-c3ccccc3)nc3ccsc23)cc1	T47D	EC50	nM	=	340
COc1cccc(N(C)c2ncnc3ccsc23)c1	T47D	EC50	nM	>	10000
COc1ccc(Nc2ncnc3scc(C)c23)cc1	T47D	EC50	nM	>	10000
COc1ccc(N(C)c2nc(C)nc3sccc23)cc1	T47D	EC50	nM	=	8
COc1ccc(N(C)c2nc(C)nc3scc(C)c23)cc1	T47D	EC50	nM	=	4
COC(=O)c1ccc(N(C)c2ncnc3ccsc23)cc1	T47D	EC50	nM	=	190
COc1cc(OC)cc(N(C)c2ncnc3ccsc23)c1	T47D	EC50	nM	>	10000
COc1ccc(N(C)c2ncnc3c(C)csc23)cc1	T47D	EC50	nM	=	560
COc1ccc(N(C)c2nc(C)nc3ccccc23)cc1	T47D	EC50	nM	=	2
COc1ccc(N(C)c2nccc3ccsc23)cc1	T47D	EC50	nM	>	10000
COc1ccc(N(C)c2ncnc3sccc23)cc1	T47D	EC50	nM	=	22
COc1ccc(Nc2ncnc3ccsc23)cc1	T47D	EC50	nM	>	10000
COc1ccc(N(C)c2nc(C)nc3c(C)csc23)cc1	T47D	EC50	nM	=	240
COc1ccc(Nc2nc(C)nc3scc(C)c23)cc1	T47D	EC50	nM	>	10000
COc1ccccc1N(C)c1ncnc2ccsc12	T47D	EC50	nM	>	10000
COc1ccc(N(C)c2nc(C)nc3ccsc23)cc1	T47D	EC50	nM	=	14
COc1ccc(N(C)c2ncnc3sc(C)c(C)c23)cc1	T47D	EC50	nM	=	24
COc1ccc(N(C)c2nc(C)nc3sc(C)c(C)c23)cc1	T47D	EC50	nM	=	21
COc1ccc(N(C)c2ncnc3ccsc23)cc1	T47D	EC50	nM	=	52
COc1ccc(OC)c(N(C)c2ncnc3ccsc23)c1	T47D	EC50	nM	=	2600
